System: CCRF-CEM leukemia
Assay: NCI-60 one-dose screen, 48 h
Conditions: 10 µM
Compounds without any hit were thinned out: in the full panel of roughly 83,000, 20% have a hit. Active and inactive are the calls of the source. How the source made its calls: active means growth percent below 10; inactive means the rest.
Parameter call: string, one of yes (1) = active, no (0) = inactive

| Molecule | Answer Label |
| --- | --- |
| O=S(=O)(c1cc(Cl)ccc1O)c1cc(Cl)ccc1O | no (0) |
| N#C/C(=C/N1C(=O)/C(=C/c2ccc([N+](=O)[O-])cc2)SC1=S)c1nc2ccccc2s1 | no (0) |

Prompt line: // param item: CC[C@@]1(OC(=O)CN(C)C)C(=O)OCc2c1cc1n(c2=O)Cc2cc3c(N)cccc3nc2-1 ; yields the recorded call
Response line: yes (1)

Prompt line: // param item: N#CC(=C1C=CC(=NO)C=C1)c1ccccc1 ; yields the recorded call
Response line: yes (1)
